Data origin: ChEMBL document CHEMBL3259699

test: Cytotoxicity against HFF assessed as inhibition of cell viability after 3 days by MTT assay; assay type: cell-based; settings: human, HFF cells
measured-attribute: log10 of CC50 at 72 h (log10 of the value in µM)
Response schema: value (number) is log10 of CC50 at 72 h in units of µM.

C[C@@H]1O[C@@H](O[C@@H]2[C@@H](O)[C@@H](O)[C@H](O[C@@H]3[C@@H](O)[C@@H](O)[C@H](O[C@H]4CC[C@@]5(C)[C@H](CC[C@@H]6[C@@H]5CC[C@]5(C)[C@@H](C7=CC(=O)OC7)CC[C@]65O)C4)O[C@H]3C)O[C@H]2C)[C@H](O)[C@H](O)[C@H]1O :: 0.85

Please indicate log10 of CC50 at 72 h recorded for `C[C@H]1O[C@H](O[C@H]2CC[C@@]3(C)[C@H](CC[C@@H]4[C@@H]3CC[C@]3(C)[C@@H](C5=CC(=O)OC5)CC[C@]43O)C2)CC[C@@H]1O[C@@H]1CC[C@H](O[C@@H]2CC[C@H](O)[C@@H](C)O2)[C@@H](C)O1`
1.18

Return the recorded log10 of CC50 at 72 h value; entry: `C[C@H]1O[C@H](O[C@H]2[C@H](O)[C@H](O)[C@@H](O[C@H]3CC[C@@]4(C)[C@H](CC[C@@H]5[C@@H]4CC[C@]4(C)[C@@H](C6=CC(=O)OC6)CC[C@]54O)C3)O[C@@H]2C)[C@@H](O)[C@@H](O)[C@@H]1O`
0.83

Give a short answer stating reported log10 of CC50 at 72 h for `C[C@]12CC[C@H](O[C@@H]3O[C@@H](CO)[C@H](O)[C@@H](O)[C@H]3O)C[C@H]1CC[C@@H]1[C@@H]2CC[C@]2(C)[C@@H](C3=CC(=O)OC3)CC[C@]12O` .
-0.05

Retrieve log10 of CC50 at 72 h measured for `C[C@@H]1O[C@@H](O[C@@H]2CC[C@H](O[C@H]3CC[C@@]4(C)[C@H](CC[C@@H]5[C@@H]4CC[C@]4(C)[C@@H](C6=CC(=O)OC6)CC[C@]54O)C3)O[C@H]2C)CC[C@H]1O` and print it.
0.04

Look up log10 of CC50 at 72 h of `C[C@@H]1O[C@@H](O[C@H]2CC[C@@]3(C)[C@H](CC[C@@H]4[C@@H]3CC[C@]3(C)[C@@H](C5=CC(=O)OC5)CC[C@]43O)C2)[C@H](O)[C@H](O)[C@H]1O` and report it.
-0.15

Retrieve log10 of CC50 at 72 h measured for `C[C@H]1O[C@@H](O[C@H]2[C@@H](O)C[C@H](O[C@H]3[C@@H](O)C[C@H](O[C@H]4CC[C@@]5(C)[C@H](CC[C@@H]6[C@@H]5CC[C@]5(C)[C@@H](C7=CC(=O)OC7)CC[C@]65O)C4)O[C@@H]3C)O[C@@H]2C)C[C@H](O)[C@@H]1O` and print it.
0.45

Respond only with log10 of CC50 at 72 h recorded for `C[C@H]1O[C@H](O[C@H]2CC[C@@]3(C)[C@H](CC[C@@H]4[C@@H]3CC[C@]3(C)[C@@H](C5=CC(=O)OC5)CC[C@]43O)C2)CC[C@@H]1O[C@@H]1CC[C@H](O)[C@@H](C)O1`
1.08

Recall and state the measured log10 of CC50 at 72 h for `C[C@@H]1O[C@@H](O[C@H]2CC[C@@]3(C)[C@H](CC[C@@H]4[C@@H]3CC[C@]3(C)[C@@H](C5=CC(=O)OC5)CC[C@]43O)C2)CC[C@H]1O` .
-0.15

Please look at this compound and report its log10 of CC50 at 72 h: `C[C@H]1O[C@H](O[C@H]2[C@H](O)[C@H](O)[C@@H](O[C@H]3[C@H](O)[C@H](O)[C@@H](O[C@H]4CC[C@@]5(C)[C@H](CC[C@@H]6[C@@H]5CC[C@]5(C)[C@@H](C7=CC(=O)OC7)CC[C@]65O)C4)O[C@@H]3C)O[C@@H]2C)[C@@H](O)[C@@H](O)[C@@H]1O`
1.00

Report log10 of CC50 at 72 h, nothing else, for this compound: `C[C@@H]1O[C@@H](O[C@@H]2CC[C@H](O[C@@H]3CC[C@H](O[C@H]4CC[C@@]5(C)[C@H](CC[C@@H]6[C@@H]5CC[C@]5(C)[C@@H](C7=CC(=O)OC7)CC[C@]65O)C4)O[C@H]3C)O[C@H]2C)CC[C@H]1O`
0.38

Identify measured log10 of CC50 at 72 h corresponding to `C[C@H]1O[C@H](O[C@H]2CC[C@@]3(C)[C@H](CC[C@@H]4[C@@H]3CC[C@]3(C)[C@@H](C5=CC(=O)OC5)CC[C@]43O)C2)CC[C@@H]1O`
0.04
